Experiment: Maximum tolerated dose, i.p.
Design: species or system mice
Conditions: mouse, in vivo, ip

{"columns": ["molecule", "MTD / mg/kg"],
 "data": [
  ["COc1cc(NC(C)=O)ccc1COCCCN1CCN(c2ccccc2)CC1", 100]
]}
